Data provenance is patent US11136300B2.

assay: Equilibrium solubility of formula (I) Form 2 in water; assay type: physicochemical; conditions: thermodynamic from solid, 20° C., equilibrated 6 hrs, supernatant by HPLC
quantity.name: solubility at 6 h (mg/mL)
Report the figure in mg/mL without appending any unit label.

Asked: Can you look up the measured solubility at 6 h of CC(O)[C@H](NC(=O)N[C@@H](CC(N)=O)c1nc([C@@H](N)CO)no1)C(=O)O (stereo partly shown) [Form 2] for me?
Given back: 148

* * *

assay: Equilibrium solubility of formula (I) Form 2 in water; type: physicochemical; conditions: thermodynamic from solid, 30° C., equilibrated 6 hrs, supernatant by HPLC
quantity.name: solubility at 6 h (mg/mL)
Express it in mg/mL; write the number only.

Asked: Please look up its solubility at 6 h: CC(O)[C@H](NC(=O)N[C@@H](CC(N)=O)c1nc([C@@H](N)CO)no1)C(=O)O (stereo partly shown) [Form 2]
Given back: 166
